# experimental_target: CCK-A receptor (Rattus norvegicus, UniProt P30551)
# Construct: The pancreas of an SD rat was homogenized; from tissue; host or cells: SD rat pancreas membranes
# Sequence (P30551 whole entry): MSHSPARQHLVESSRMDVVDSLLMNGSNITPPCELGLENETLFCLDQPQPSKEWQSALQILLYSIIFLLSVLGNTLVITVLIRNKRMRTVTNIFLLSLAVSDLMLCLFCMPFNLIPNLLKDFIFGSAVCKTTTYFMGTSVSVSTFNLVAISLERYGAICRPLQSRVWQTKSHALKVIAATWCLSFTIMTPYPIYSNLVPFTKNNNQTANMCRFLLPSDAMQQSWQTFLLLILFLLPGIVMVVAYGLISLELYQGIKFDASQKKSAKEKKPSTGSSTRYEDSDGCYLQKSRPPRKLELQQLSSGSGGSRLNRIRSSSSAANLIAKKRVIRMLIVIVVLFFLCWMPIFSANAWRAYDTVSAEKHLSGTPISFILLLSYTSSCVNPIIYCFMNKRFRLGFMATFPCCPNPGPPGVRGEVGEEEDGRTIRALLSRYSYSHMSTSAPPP
# assay_remarks: Selectivity for the CCK-B receptor by comparison with binding to the CCK-A receptor in rats ([3H]L-364,718, pancreas membranes)
# Set-up: species or system SD rat
# condition_context: table 2; higher value = better CCK-B selectivity
value_type: A/B Ratio: IC50 (CCK-A)/IC50 (CCK-B)
One number for each entry.

Examples from the recorded data:
Q) // A/B Ratio: IC50 (CCK-A)/IC50 (CCK-B) lookup, key: Cc1cccc(NC(=O)NC2N=C(c3nccs3)c3ccccc3N(CC(=O)C(C)(C)C)C2=O)c1 (racemic)
A) 540

Q) Also "CNc1cccc(NC(=O)N[C@@H]2N=C(c3ccccn3)c3ccccc3N(CC(=O)C(C)(C)C)C2=O)c1" , if possible.
A) 5020

Q) Also "CN(C)c1cccc(NC(=O)N[C@@H]2N=C(c3ccccn3)c3ccccc3N(CC(=O)C(C)(C)C)C2=O)c1" , if possible.
A) 565

Batch request: A/B Ratio: IC50 (CCK-A)/IC50 (CCK-B) for each of the following compounds.
1. Cc1cccc(NC(=O)NC2N=C(c3nccn3C)c3ccccc3N(CC(=O)C(C)(C)C)C2=O)c1 (racemic)
2. CN(C)c1cccc(NC(=O)NC2N=C(c3nccs3)c3ccccc3N(CC(=O)C(C)(C)C)C2=O)c1 (racemic)
3. CN(C)c1cccc(NC(=O)NC2N=C(c3nccn3C)c3ccccc3N(CC(=O)C(C)(C)C)C2=O)c1 (racemic)

A)
187
700
238

====

Record form. Attribute: pIC50. Fill in for each entry.
# experimental_target: CCK-B receptor (Rattus norvegicus, UniProt P30553)
# Construct: the whole brain was immediately excised from each of the rats and homogenized; from tissue; host or cells: SD rat whole brain membranes
# Sequence (P30553 whole entry): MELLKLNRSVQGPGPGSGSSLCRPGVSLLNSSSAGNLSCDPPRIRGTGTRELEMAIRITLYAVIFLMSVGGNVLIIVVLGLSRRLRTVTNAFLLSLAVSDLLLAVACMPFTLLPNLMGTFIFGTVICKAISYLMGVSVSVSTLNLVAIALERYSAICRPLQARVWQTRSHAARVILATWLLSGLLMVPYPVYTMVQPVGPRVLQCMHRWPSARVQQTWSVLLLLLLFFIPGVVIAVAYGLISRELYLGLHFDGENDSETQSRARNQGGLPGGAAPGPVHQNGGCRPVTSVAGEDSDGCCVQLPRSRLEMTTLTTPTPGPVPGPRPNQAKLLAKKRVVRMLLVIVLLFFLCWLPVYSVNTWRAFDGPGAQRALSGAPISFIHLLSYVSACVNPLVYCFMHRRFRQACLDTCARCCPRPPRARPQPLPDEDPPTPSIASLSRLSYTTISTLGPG
# assay_remarks: Measurement of binding affinity for CCK-B receptors ([125I]BH-CCK-8, rat brain membranes)
# Design: species or system SD rat
# condition_context: table 2; rat brain membranes, [125I]BH-CCK-8; read-out: Receptor binding affinity IC50, CCK-B
Give bare numbers, as −log10 of the molar value.

Q) // pIC50 lookup, key: "CN(C)c1cccc(NC(=O)N[C@@H]2N=C(c3ccccn3)c3ccccc3N(CC(=O)C(C)(C)C)C2=O)c1"
A) 9.70

Then there is this molecule:
Q) // pIC50 lookup, key: "CNc1cccc(NC(=O)N[C@@H]2N=C(c3ccccn3)c3ccccc3N(CC(=O)C(C)(C)C)C2=O)c1"
A) 10.00

====

Record form. Attribute: IC50. Fill in for each entry.
# experimental_target: CCK-B receptor (Rattus norvegicus, UniProt P30553)
# Construct: the whole brain was immediately excised from each of the rats and homogenized; from tissue; host or cells: SD rat whole brain membranes
# assay_remarks: Measurement of binding affinity for CCK-B receptors ([125I]BH-CCK-8, rat brain membranes)
# Parameters: species or system SD rat
Answers are plain numbers, in pM.

Q) // IC50 lookup, key: CN(C)c1cccc(NC(=O)NC2N=C(c3nccn3C)c3ccccc3N(CC(=O)C(C)(C)C)C2=O)c1 (racemic)
A) 2080

Q) Also CN(C)c1cccc(NC(=O)NC2N=C(c3nccs3)c3ccccc3N(CC(=O)C(C)(C)C)C2=O)c1 (racemic) , if possible.
A) 630

Q) Also CN(C)c1cccc(NC(=O)NC2N=C(c3ncc[nH]3)c3ccccc3N(CC(=O)C(C)(C)C)C2=O)c1 (racemic) , if possible.
A) 55300

Q) Also CN(C)c1cccc(NC(=O)NC2N=C(c3cnccn3)c3ccccc3N(CC(=O)C(C)(C)C)C2=O)c1 (racemic) , if possible.
A) 220

Then there is this compound:
Q) // IC50 lookup, key: Cc1cccc(NC(=O)NC2N=C(c3nccs3)c3ccccc3N(CC(=O)C(C)(C)C)C2=O)c1 (racemic)
A) 800

Source of measurements: patent US5728829A
